Target: DGKα (Homo sapiens (Human), UniProt P23743)
Sequence (P23743 other isoform, or with tags, fused parts or gaps): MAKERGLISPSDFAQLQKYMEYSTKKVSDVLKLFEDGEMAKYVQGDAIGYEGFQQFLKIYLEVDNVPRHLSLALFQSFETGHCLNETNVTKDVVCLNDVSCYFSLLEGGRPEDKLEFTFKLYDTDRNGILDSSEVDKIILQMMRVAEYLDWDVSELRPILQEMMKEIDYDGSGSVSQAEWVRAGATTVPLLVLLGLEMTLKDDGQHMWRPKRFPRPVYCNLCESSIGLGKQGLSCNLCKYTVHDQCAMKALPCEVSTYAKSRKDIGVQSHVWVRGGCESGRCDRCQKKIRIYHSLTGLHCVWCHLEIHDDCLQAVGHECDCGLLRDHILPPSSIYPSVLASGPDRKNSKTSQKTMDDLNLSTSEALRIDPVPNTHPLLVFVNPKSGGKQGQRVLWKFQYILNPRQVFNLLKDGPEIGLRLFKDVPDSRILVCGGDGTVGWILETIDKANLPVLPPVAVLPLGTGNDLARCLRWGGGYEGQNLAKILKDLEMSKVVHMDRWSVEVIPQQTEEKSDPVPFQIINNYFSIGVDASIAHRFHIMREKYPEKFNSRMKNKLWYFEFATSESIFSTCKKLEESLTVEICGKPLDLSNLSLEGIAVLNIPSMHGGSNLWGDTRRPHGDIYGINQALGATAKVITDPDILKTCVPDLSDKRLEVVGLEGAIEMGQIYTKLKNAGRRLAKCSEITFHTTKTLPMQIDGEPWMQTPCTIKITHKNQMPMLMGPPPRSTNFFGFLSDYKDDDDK
Assay: Human DGKα kinase activity inhibition assay (ADP-Glo)
Conditions: recombinant full-length human DGKα, 55 μM ATP, 7 μM 1,2-dioleoyl-sn-glycerol, read-out: IC50 values of examples in in vitro human DGKa kinase activity inhibition assays
pIC50: −log10 of the molar value.
Parameter threshold = 8. Response is 1 when pIC50 meets or exceeds it, else -1.

Exam item: Record Cn1c(=O)c(C#N)c(N2CCC(c3nc4ccccc4s3)CC2)c2cc(C#N)ccc21 [Example 176] ; criterion: pIC50 no lower than 8. Met?
Marked response: 1

Exam item: Threshold query (pIC50 >= 8) on CCOc1ccc2c(c1)c(N1CCC(c3nc4cc(C)ccc4o3)CC1)c(C#N)c(=O)n2C [Example 405]
Marked response: -1

Exam item: pIC50 >= 8 for Cc1ccc2oc(C3CCN(c4c(C#N)c(=O)n(C)c5ccc(OCC(F)F)cc45)CC3)nc2c1 [Example 407] ?
Marked response: -1

Exam item: Is pIC50 at least 8? Consider COCc1ccc2c(c1)c(N1CCC(C)(c3nc4cc(C)ccc4o3)CC1)c(C#N)c(=O)n2C [Example 213]
Marked response: -1

Exam item: # check: pIC50 of Cc1ccc2oc(C3CCN(c4c(C#N)c(=O)n(C)c5ccc(Br)cc45)CC3)nc2c1 [Example 396] is greater than or equal to 8
Marked response: 1
